# System: 349418-098-R tumor spheroid viability;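 further: spheroids exposed to compound for 7 days before measurement; percent of vehicle control viability with 100% = DMSO-treated spheroids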
# PROTOCOL_DESCRIPTION: Anticancer human tumor 349418-098-R patient-derived lung adenocarcinoma cell line growth inhibition
# RUN_PARAMETERS: second compound 0.0949 µM; first compound 0.0316 µM; stronger effect = lower value; spheroids with HUVEC and MSC
# Method: Multicellular complex tumor spheroid response to DNA repair inhibitors in combination with DNA-damaging drugs This study explores the anticancer activities of DNA-damaging drugs and inhibitors of DNA damage repair, both as single agents and in combinations. […] Twenty-six patient-derived or established malignant cell lines were evaluated representing sarcoma, melanoma, small cell lung cancer (SCLC), non-small cell lung cancer (NSCLC), as well as bladder, ovarian and pancreatic cancers. […]
MEASUREMENT_KIND: viability, T/C (%)

{"COMPOUND": "COc1ccc([C@@H](O)c2cc(-c3ncnc4cc(N5CCOCC5)ccc34)c(F)cc2Cl)nn1 + CC[C@@]1(O)C(=O)OCc2c1cc1n(c2=O)Cc2cc3c(CN(C)C)c(O)ccc3nc2-1", "MEASURED_VALUE": 18.4}
{"COMPOUND": "CC1COCCN1c1cc(-c2ccnn2C)c2ccnc(-c3ccn[nH]3)c2n1 (stereo unspecified) + CC[C@@]1(O)C(=O)OCc2c1cc1n(c2=O)Cc2cc3c(CN(C)C)c(O)ccc3nc2-1", "MEASURED_VALUE": 5.41}
{"COMPOUND": "CC(C)n1c(=O)n(C)c2cnc3cc(F)c(-c4ccc(OCCCN5CCCCC5)nc4)cc3c21 + CC[C@@]1(O)C(=O)OCc2c1cc1n(c2=O)Cc2cc3c(CN(C)C)c(O)ccc3nc2-1", "MEASURED_VALUE": 7.03}
{"COMPOUND": "[2H]c1nc(C)nc([2H])c1-c1cc(NC[C@@H](C)c2cccc3c(C(=O)NC)ccnc23)ncn1 + CC[C@@]1(O)C(=O)OCc2c1cc1n(c2=O)Cc2cc3c(CN(C)C)c(O)ccc3nc2-1", "MEASURED_VALUE": 13.9}
{"COMPOUND": "COc1cc(C)[nH]c(=O)c1CN1CCc2c(Cl)cc(C(OC)C3COC3)c(Cl)c2C1=O (stereo unspecified) + CC[C@@]1(O)C(=O)OCc2c1cc1n(c2=O)Cc2cc3c(CN(C)C)c(O)ccc3nc2-1", "MEASURED_VALUE": 19.4}
{"COMPOUND": "Cc1cc(C)c(CNC(=O)c2cc(-c3ccc(CN4CCOCC4)cc3)cc3c2cnn3C2CCCC2)c(=O)[nH]1 + CC[C@@]1(O)C(=O)OCc2c1cc1n(c2=O)Cc2cc3c(CN(C)C)c(O)ccc3nc2-1", "MEASURED_VALUE": 19.2}
